Exercise: state measured Solvency, MCPA for each of the compounds provided.
# test-method-notes: Solvency test, active ingredient MCPA
# Type: physicochemical
# run-conditions: wt % active ingredient in solution; concentrations below 15 wt % not tested

Param item = CC(=O)OCCCCCCC(C)C [Solvent C8, isononyl acetate] ; retrieve measured Solvency, MCPA.
<15 wt %

Repeat for the following compound: CC(C)CCCCCCCOC(=O)c1ccccc1 [Solvent C6, isodecyl benzoate]
<15 wt %

Repeat for the following compound: CCC(C)OC(=O)c1ccccc1 (centres unmarked) [Solvent E1, Secondary butyl benzoate]
<15 wt %

Repeat for the following compound: CCC(C)OC(=O)c1ccc(C(=O)OC(C)CC)o1 (centres unmarked) [Solvent C1, Di-sec butyl furan-2,5-dicarboxylate, reference compound]
<15 wt %

Repeat for the following compound: CC(=O)OCc1ccccc1 [Solvent C4, Benzyl acetate, reference compound]
15.1 wt %

---

Exercise: state measured Density at 25° C. for each of the compounds provided.
# test-method-notes: Density at 25° C. (ASTM D4052)
# Format: physicochemical

Param item = CCC(C)OC(=O)c1ccccc1 (stereo not drawn) [Solvent E1, Secondary butyl benzoate] ; retrieve measured Density at 25° C..
0.992 g/mL

Repeat for the following compound: O=C(OC1CCCCC1)c1ccccc1 [Solvent E2, Cyclohexyl benzoate]
1.042 g/mL

Repeat for the following compound: CC(=O)OCCCCCCC(C)C [Solvent C8, isononyl acetate]
0.867 g/mL

Repeat for the following compound: CC(C)(C)C(=O)OCc1ccccc1 [Solvent E4, Benzyl pivalate]
0.966 g/mL

Repeat for the following compound: CCCCCCCCCC(=O)N(C)C [Solvent C5, linear N,N-dimethyldecanamide, reference compound]
0.876 g/mL

Repeat for the following compound: CC(=O)OCc1ccccc1 [Solvent C4, Benzyl acetate, reference compound]
1.051 g/mL

Repeat for the following compound: CCCCOC(=O)c1ccccc1 [Solvent C3, Butyl benzoate, reference compound]
1.001 g/mL

Repeat for the following compound: CC(=O)OCCCCCC(C)C [Solvent C7, isooctyl acetate]
0.868 g/mL

Repeat for the following compound: CC(C)CCCCCCCOC(=O)c1ccccc1 [Solvent C6, isodecyl benzoate]
0.949 g/mL

Repeat for the following compound: CCC(C)OC(=O)c1ccc(C(=O)OC(C)CC)o1 (stereo not drawn) [Solvent C1, Di-sec butyl furan-2,5-dicarboxylate, reference compound]
1.047 g/mL

Repeat for the following compound: CC(C)CCCCCOC(=O)c1ccccc1 [Solvent E3, Isooctyl benzoate]
0.962 g/mL

Repeat for the following compound: CN(C)C(=O)CCCCCC(C)(C)C [Solvent E5, N,N-dimethyl neodecanamide]
0.883 g/mL
